molecular target: Adra2b (gene 24174); experiment: NVS_GPCR_rmAdra2B: NovaScreen (NVS) G Protein-Coupled Receptor Assay for hybird cells Adrenergic, Alpha 2B Receptor (Adra2B) (AID 2283306)
Results filed as inconclusive are left out. The source made the active and inactive calls. The calls were made as follows: active = hit-call score of the fitted dose curve at least 0.9, where 1 is the maximum; inconclusive = response in the unintended direction; inactive = score below 0.9.
API: response.call in label 1 for active, label 0 for inactive

The examples below pair each entry with its known result.
CCCCC(CC)COC(=O)CC(C(=O)OCC(CC)CCCC)S(=O)(=O)O (stereo unspecified) :: label 1
CNC(=O)[C@H]1O[C@@H](n2cnc3c(NCc4cc(Cl)ccc4OCc4cc(C)no4)ncnc32)[C@H](O)[C@@H]1N :: label 0
CN1CCN(Cc2cc(-c3ccc4[nH]c(=O)oc4c3)co2)[C@@H](c2ccc(F)cc2)C1 :: label 1
Cc1nc(C)nc(N2C[C@@H](C)N(c3ccnc([C@@H](C)O)n3)[C@@H](C)C2)n1 :: label 0
NC(=O)Cn1c(=O)cc(CCN2CCN(c3nccc4sccc34)CC2)c2ccc(F)cc21 :: label 1

For the next question, use this compound.
Give the logged outcome of this assay for the following compound: CNCc1cc(F)ccc1Oc1ccc(Cl)c(Cl)c1 label 1

* * *

Read-out: CFLAR gene, CFLAR (gene 8837)
Assay: LTEA_HepaRG_CFLAR: Life Technologies and Expression Analysis (LTEA) Assay for CFLAR gene using HepaRG (AID 2283455)
Conditions: mRNA level, 48 h; actives raise or lower the signal
Description: LTEA_HepaRG is a cell based, multiplexed-readout assay that uses HepaRG, a human liver cell line, with measurements taken at 48 hours after chemical dosing on a 96-well plate.LTEA_HepaRG_CFLAR is one of 102 assay component(s) measured in the LTEA HepaRG cell culture assay. It is a marker of Cell proliferation, survival, death.Data from the assay component LTEA_HepaRG_CFLAR was analyzed into 1 endpoint. […]
The source made the active and inactive calls. The calls were made as follows: active = hit-call score of the fitted dose curve at least 0.9, where 1 is the maximum; inactive = score below 0.9.
// one of active, inactive, no free text

The following compounds have reported results that may help.
CC(C)(C)c1cc(O)c(C(C)(C)C)cc1O :: active
CC=Cc1ccc(O)c(OC)c1 :: inactive
COc1ccc2c(c1)c(CC(=O)O)c(C)n2C(=O)c1ccc(Cl)cc1 :: inactive
Nc1ccc2c(c1)C(=O)c1ccccc1C2=O :: active

Just curious, what result did CC(=O)OC/C=C(\C)CCC=C(C)C get here? inactive

Name the outcome recorded for Cc1ccc(N(C)C)cc1 in the assay. inactive

What did the test return for Cc1oc(-c2ccccc2)nc1CCOc1cccc2c1ccn2CCC(=O)O ? active

For this compound, state the assay outcome: CCCCCCCCCCCCCCCC inactive

Please let me know the test result on file for OC[C@@H](O)[C@@H](O)[C@H](O)[C@H](O)CO . inactive

Please indicate how the test categorized O=c1[nH]cc(F)c(=O)[nH]1 . inactive

Call for entry Cc1ccc(C)c(O)c1C : inactive

* * *

assay: ATG_CMV_CIS: Attagene CIS-FACTORIAL HepG2 Assay for human CMV (Internal Marker) (AID 2282928); conditions: HepG2 CMV promoter reporter, transcription factor profiling; actives raise or lower the signal;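 also: endpoint acts as a background internal control marker rather than a target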
The source made the active and inactive calls. How the source made its calls: active means hit-call score of the fitted dose curve at least 0.9, where 1 is the maximum; inactive means score below 0.9.
Can you answer with just one of these options? Y for active, N for inactive

Use these answered entries as a reference point.
CCCCCC(=O)O :: N
CC(C)c1ccc(C(=O)N=C(N)N)cc1S(C)(=O)=O :: N
Oc1ccc2ccccc2c1N=Nc1ccccc1 :: N
O=c1[nH]cc(F)c(=O)[nH]1 :: Y
CCNc1cccc(C)c1 :: N
Cc1cccc(C)c1O :: N
Cc1ccc2ncccc2c1 :: N
CCOc1ccc2c(c1)C(C)=CC(C)(C)N2 :: Y

Test call, this molecule: NS(=O)(=O)c1cc2c(cc1Cl)NCNS2(=O)=O N

What outcome does the record of this test show for CC(CO)OC(C)CO (centres undefined) (tested in a mixture with another compound) ? N

For CCOC(=O)CCC(=O)OCC , which call appears in the assay record? N

Assay outcome for CCCCCCCCCCCC(=O)OC : what was it? N

These measurements were taken from PubChem BioAssay (EPA / NIEHS).
